Reported values of growth for individual entries
Test system: HS 578T breast
Test: NCI-60 one-dose screen, 48 h (100 = growth as untreated, 0 = no growth, -100 = all killed)
Conditions: 10 µM unless noted
About 83,000 compounds went through this panel and 20% of them were active in at least one assay; those are over-represented in the sample as a whole.
OBSERVATION_TYPE: growth (%)

INSERT INTO measurements (compound, assay_value) VALUES
  ('CC1CC(C(C)(C)C)C(=O)C(C(C)(C)C)C1 (centres undefined)', 106),
  ('Cc1cccc(Cc2cnc(NC(=O)/C=C/c3ccco3)s2)c1', 14.8),
  ('C[C@H](NC(=O)[C@@H]1CSSC[C@@H](NC(=O)c2nc3ccccc3cc2O)C(=O)NCC(=O)N1C)c1ccccc1', 33),
  ('O=C(COc1ccc(/C=C2\Oc3ccccc3C2=O)cc1)c1ccc(Cl)cc1', 112),
  ('Cc1ccc(-c2cc3c(cc2O)C2CCCCC2(N2CCOCC2)O3)cc1 (centres undefined)', 108),
  ('CC/C=C\C/C=C\C[C@H](O)C/C=C1/C(=O)C=C[C@@H]1C/C=C\CCCC(=O)O', 42.6),
  ('COc1ccc(-c2[nH]c(=S)n(C(CC3(C)NCC(=O)N3n3c(-c4ccccc4)cc(C)nc3=S)c3ccc(OC)cc3)c(=O)c2Br)cc1 (centres undefined)', 40.7),
  ('Cc1ccc(S(=O)(=O)n2cc(CNc3ccc(N4CCOCC4=O)cc3)c3ccccc32)cc1', 89.6),
  ('CC/C=C\CCC/C=C1/C(=O)C=C[C@@H]1C/C=C\CCCC(=O)O', 45.7),
  ('Cc1ccc(NS(=O)(=O)c2ccc3c(c2)C(=O)CC(c2ccc(C(=O)C(C)C)cc2)N3)cc1C (centres undefined)', 73.2),
  ('c1csc(-c2c3ccc(=[N+]4CCCCC4)cc-3oc3cc(N4CCCCC4)ccc23)c1', -20.7),
  ('COC(=O)[C@]12CC[C@@H](C)[C@H](C)[C@@H]1C1=CC[C@@H]3[C@@]4(C)C(C=O)=C[C@@](C)(COC(C)=O)[C@@H]4C(=O)C[C@@]3(C)[C@]1(C)CC2', 65.1),
  ('O=[N+]([O-])c1ccc(C2CC(c3ccccc3)=Nc3ccccc3S2)cc1 (centres undefined)', 93.3),
  ('O=C1Nc2ccccc2/C1=C/c1cn(C(=O)c2c(Cl)cccc2Cl)c2ccccc12', 64.7),
  ('COc1ccc2c(c1)C(=O)/C(=C/c1ccc(OCC(=O)Nc3nccs3)cc1)O2', 56.2),
  ('C=CCSc1nc2ccccc2cc1/C=N/O', 72.2),
  ('COc1cc(/C=C/C(=O)c2cccc(-n3cc(-c4ccccc4)[nH]c3=O)c2)ccc1O', 71.3),
  ('CN1C(=O)N(C)C2C1NN=c1s/c(=C\c3ccccc3)c(=O)n12 (centres undefined)', 40.7),
  ('CN1CCN(C(=O)c2c3c(n4ccccc24)C(=O)c2ncccc2C3=O)CC1', 52.5);

----------
Tested on: RXF 393 renal
Assay: NCI-60 one-dose screen, 48 h (100 = growth as untreated, 0 = no growth, -100 = all killed)
Details: 10 µM unless noted
Compounds without any hit were thinned out: in the full panel of roughly 83,000, 20% have a hit.
OBSERVATION_TYPE: growth (%)

INSERT INTO measurements (compound, unit_tag, assay_value) VALUES
  ('N#CC1=C(NC=O)Oc2c(ccc3ccccc23)C1c1ccccc1 (stereo unspecified)', '%', 25.5),
  ('COc1cccc(-c2nn(-c3ccccc3)cc2-c2ccnc(NCCCNC(=O)Nc3ccc(Cl)c(Cl)c3)c2)c1', '%', 9.74),
  ('Clc1cc(Cl)cc(Nc2ccc3cc(OCCCN4CCOCC4)ccc3n2)c1', '%', 5.08),
  ('COC1=C(OC)C(=O)C(OC)=C(OC)C1=O', '%', 95),
  ('COc1ccc(-c2nc3ccc4[nH]ncc4c3c3c2CCCC3)cc1B(O)O', '%', 6.38),
  ('Cc1c(C(=O)OC(=NC2CCCCC2)NC2CCCCC2)sc2c1c(=O)nc1c(C#N)n[nH]n12', '%', 99.2),
  ('O=c1c2cc(F)ccc2sc2c(NCCN3CCCCC3)nc3ccccc3c12', '%', 39.7),
  ('N#Cc1c(N2CCNCC2)nc2sc3cc(Cl)c(Cl)cc3n2c1=N', '%', 19.1),
  ('COc1cc(/C=C/C(=O)c2cccc(-n3cc(-c4ccccc4)[nH]c3=O)c2)ccc1O', '%', 20),
  ('Cc1cccc(NC(=O)CSc2nc3ccccc3[nH]2)c1', '%', 99),
  ('Cc1ccc2c(c1)Sc1c(ccc3ccccc13)N2', '%', 63.6),
  ('COc1cc(C2CC(=O)Nc3c2c(C)nn3-c2nc3ccccc3[nH]2)c(OC)c(OC)c1OC (stereo unspecified)', '%', 61.5),
  ('CCCCCCCC/C=C\CCCCCCCCOc1ccccc1CC(=O)NCC[N+](C)(C)C', '%', 16.6),
  ('C[C@]12CC[C@@H]3c4cc(OC(F)F)c(O)cc4CC[C@H]3[C@@H]1CC[C@@H]2OS(N)(=O)=O', '%', 19.1),
  ('Cc1ccc(-n2c(-c3ccccc3)c(-c3ccccc3)c3c(SCC(=O)n4[nH]c(N)cc4=O)ncnc32)cc1', '%', 96.6),
  ('O=C(/C=C/c1ccco1)c1ccc(Nc2nc(Nc3ccc(F)cc3)nc(Nc3ccc(Cl)cc3)n2)cc1', '%', 35.6),
  ('Cc1ccc2nc3ccccc3c(NCc3ccccc3)c2c1', '%', 1.32),
  ('CCN(CC)CCN1CC(O)=C(c2nc(-c3ccc(Cl)cc3)cs2)C1=N', '%', 25),
  ('CCC1(C2CCCC2)NC(=O)NC1=O (stereo unspecified)', '%', 97.2),
  ('CCCCCCCCCCCCCCCCCC1=NCCN1CCOC1=C(Cl)C(=O)c2ccccc2C1=O', '%', 102),
  ('COC1=CC(=O)C[C@@H](C)[C@]12Oc1c(Cl)c(OC)cc(OC)c1C2=O', '%', 86.8),
  ('COc1cccc(-c2nn(-c3ccccc3)cc2-c2ccnc(NCCNC(=O)Nc3ccccc3)c2)c1', '%', 63.5),
  ('Cc1ccc(C(=O)COc2cccc(/C=C3\Oc4ccccc4C3=O)c2)cc1', '%', 94.5),
  ('Cc1ccc(CCC(=O)Nc2ncc(Cc3cc(Cl)ccc3Cl)s2)o1', '%', -8.55),
  ('CCCCCCCCCCN(CCCCCCCCCC)CC(=O)c1ccc2cc(Br)c3ccccc3c2c1', '%', 95.5),
  ('CCCCC1CCCCN1C(=O)OCC (stereo unspecified)', '%', 152),
  ('COc1ccc2occ(C3=C(c4c[nH]c5ccccc45)C(=O)N(O)C3=O)c2c1', '%', 107),
  ('Cc1ccc(S(=O)(=O)n2cc(CNc3ccc(N4CCOCC4=O)cc3)c3ccccc32)cc1', '%', -8.02),
  ('S=C(c1ccc2c(c1)OCO2)N1CCN(c2ccccc2Cl)CC1', '%', 109),
  ('Cn1cc2c(c1)-c1nc(Nc3ccccc3)ncc1CC2', '%', 62.4),
  ('NS(=O)(=O)c1ccc(-n2nc(C(=O)N/N=C\c3ccc(F)cc3)cc2-c2ccc(Cl)cc2)cc1', '%', 89.5),
  ('CCCCCCCOc1c(OC)cc(C2CC(=O)Nc3c2c(C)nn3-c2nc3ccccc3[nH]2)cc1OC (stereo unspecified)', '%', -40.1),
  ('COc1ccc(OC)c(-c2c(C#N)c(-c3ccc(Cl)cc3)nc3c2c(-c2ccccc2)nn3-c2ccccc2)c1', '%', 101),
  ('Cc1nc2ccccc2n1CC1NC(=O)NC1=O (stereo unspecified)', '%', 103),
  ('CC(CCc1ccc(Cl)c(Cl)c1)NCc1ccc(C(C)(C)C)cc1 (stereo unspecified)', '%', 89.6),
  ('CC/C=C1/C(=O)C=C[C@@H]1C/C=C\CCCC(=O)O', '%', 110),
  ('COc1ccc(N2CCN(c3nc(-c4cc(OC)c(OC)c(OC)c4)nc4ccccc34)CC2)cc1', '%', 92.6),
  ('Cc1cc(=O)[nH]c(N=Nc2c(O)[nH]c3ccccc23)n1', '%', 117),
  ('CCN1C(=O)N(CC)C2Nn3c(s/c(=C4\C(=O)N(C)c5ccccc54)c3=O)=NC21 (stereo unspecified)', '%', -17.4),
  ('COc1cc(/C=C/C(=O)c2c(C)nc3ccccc3c2/C=C/c2ccc(C)cc2)cc(OC)c1OC', '%', 3.96),
  ('O=C(COc1ccc(/C=C2\Oc3ccccc3C2=O)cc1)Nc1nc2ccccc2s1', '%', 14.2);
